Molecular target: T1, BMPRIb receptor-Fc fusion (UniProt O00238 14-126)
T1 construct: BMP receptor-Fc fusion used at 5 ug/mL; also called ALK-6
T1 sequence (looked up): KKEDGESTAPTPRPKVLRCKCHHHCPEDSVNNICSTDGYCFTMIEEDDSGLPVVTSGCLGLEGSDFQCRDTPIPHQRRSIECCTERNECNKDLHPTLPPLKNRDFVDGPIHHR
Test: ELISA-like plate assay, captured BMP-7 from conditioned media, receptor-Fc detection
reported-property: BMPRIb binding (relative to wild type = 1.0)

{"binder": "BMP-7 variant Q53G (ligand, In conditioned media; numbering on mature BMP-7) STGGKQRSQNRSKTPKNQEALRMASVAENSSSDQRQACKKHELYVSFRDLGWGDWIIAPEGYAAYYCEGECAFPLNSYMNATNHAIVQTLVHFINPETVPKPCCAPTQLNAISVLYFDDSSNVILKKYRNMVVRACGCH", "obs-value": "3.95 relative to wild type"}
{"binder": "BMP-7 variant L21E (ligand, In conditioned media; numbering on mature BMP-7) STGGKQRSQNRSKTPKNQEAERMASVAENSSSDQRQACKKHELYVSFRDLGWQDWIIAPEGYAAYYCEGECAFPLNSYMNATNHAIVQTLVHFINPETVPKPCCAPTQLNAISVLYFDDSSNVILKKYRNMVVRACGCH", "obs-value": "0.16 relative to wild type"}
{"binder": "BMP-7 variant R129D (ligand, In conditioned media; numbering on mature BMP-7) STGGKQRSQNRSKTPKNQEALRMASVAENSSSDQRQACKKHELYVSFRDLGWQDWIIAPEGYAAYYCEGECAFPLNSYMNATNHAIVQTLVHFINPETVPKPCCAPTQLNAISVLYFDDSSNVILKKYDNMVVRACGCH", "obs-value": "1.16 relative to wild type"}
{"binder": "BMP-7 variant L90G (ligand, In conditioned media; numbering on mature BMP-7) STGGKQRSQNRSKTPKNQEALRMASVAENSSSDQRQACKKHELYVSFRDLGWQDWIIAPEGYAAYYCEGECAFPLNSYMNATNHAIVQTGVHFINPETVPKPCCAPTQLNAISVLYFDDSSNVILKKYRNMVVRACGCH", "obs-value": "0.65 relative to wild type"}
{"binder": "BMP-7 variant E60H (ligand, In conditioned media; numbering on mature BMP-7) STGGKQRSQNRSKTPKNQEALRMASVAENSSSDQRQACKKHELYVSFRDLGWQDWIIAPHGYAAYYCEGECAFPLNSYMNATNHAIVQTLVHFINPETVPKPCCAPTQLNAISVLYFDDSSNVILKKYRNMVVRACGCH", "obs-value": "0.42 relative to wild type"}
{"binder": "BMP-7 variant W55R (ligand, In conditioned media; numbering on mature BMP-7) STGGKQRSQNRSKTPKNQEALRMASVAENSSSDQRQACKKHELYVSFRDLGWQDRIIAPEGYAAYYCEGECAFPLNSYMNATNHAIVQTLVHFINPETVPKPCCAPTQLNAISVLYFDDSSNVILKKYRNMVVRACGCH", "obs-value": "2.17 relative to wild type"}
{"binder": "BMP-7 variant K126Q (ligand, In conditioned media; numbering on mature BMP-7) STGGKQRSQNRSKTPKNQEALRMASVAENSSSDQRQACKKHELYVSFRDLGWQDWIIAPEGYAAYYCEGECAFPLNSYMNATNHAIVQTLVHFINPETVPKPCCAPTQLNAISVLYFDDSSNVILQKYRNMVVRACGCH", "obs-value": "0.57 relative to wild type"}
